# Tested on: human colon cancer LoVo cells
# TEST: Cell proliferation inhibition assay (CellTiter-Glo)
# Assay type: cell-based
# COND: LoVo cells, 96 hours, CellTiter-Glo
PROPERTY MEASURED: Max Inhibition (%)

STRUCTURE: C[C@@H]1COCCN1c1nc(-c2ccnc3[nH]ccc23)cc2c1ccn2S(C)(=O)=O
SYSTEM TESTED: human colon cancer LoVo cells
READOUT VALUE: 92

STRUCTURE: C[C@@H]1COCCN1c1nc(-c2ccnc3[nH]ccc23)nc2c1cnn2S(C)(=O)=O
SYSTEM TESTED: human colon cancer LoVo cells
READOUT VALUE: 92

STRUCTURE: C[C@@H]1COCCN1c1cc(-c2cc(F)cc3[nH]ccc23)nc2c1ccn2S(C)(=O)=O
SYSTEM TESTED: human colon cancer LoVo cells
READOUT VALUE: 95

STRUCTURE: C[C@@H]1COCCN1c1nc(-c2cc(Cl)cc3[nH]ccc23)nc2c1ccn2S(C)(=O)=O
SYSTEM TESTED: human colon cancer LoVo cells
READOUT VALUE: 93

STRUCTURE: C[C@@H]1COCCN1c1nc(-c2ccnc3[nH]ccc23)nc2c1ccn2S(C)(=O)=O
SYSTEM TESTED: human colon cancer LoVo cells
READOUT VALUE: 93

STRUCTURE: C[C@@H]1COCCN1c1nc(-c2cncc3[nH]ccc23)cc2c1ncn2S(C)(=O)=O
SYSTEM TESTED: human colon cancer LoVo cells
READOUT VALUE: 89

STRUCTURE: C[C@@H]1COCCN1c1nc(-c2nc3ccccc3[nH]2)nc2c1ccn2S(C)(=O)=O
SYSTEM TESTED: human colon cancer LoVo cells
READOUT VALUE: 94

STRUCTURE: Cc1cc(-c2nc(N3CCOC[C@H]3C)c3ccn(S(C)(=O)=O)c3n2)c2cc[nH]c2c1
SYSTEM TESTED: human colon cancer LoVo cells
READOUT VALUE: 94
